# procedure-details: Tmax in monkey at 5 mg/kg, iv or 30 mg/kg, po
# Assay type: ADME, organism-based, Macaca mulatta
# study-conditions: rhesus monkey, in vivo
quantity: Tmax (h)
# unit: h | format: bare number

molecule | u | Tmax
C=C(F)CN(CC)C(=O)[C@@]1(c2cccs2)C[C@H]1CN.Cl | h | 2.3

# context switch: different compound, same Tmax
Problem: Item under review: C=CCN(CC=C)C(=O)[C@@]1(c2cccs2)C[C@H]1CN.Cl . Reported Tmax?
Solution: 4.5

----------
Listed below: clearance values for each entry.
# procedure-details: Plasma clearance in Beagle dog at 5 mg/kg, iv or 30 mg/kg, po
# Assay type: ADME, organism-based, Canis lupus familiaris
Answer in mL/min/kg, number only, no unit symbol.

molecule | assay-value
C=C(F)CN(CC)C(=O)[C@@]1(c2cccs2)C[C@H]1CN.Cl | 10.8

Would you kindly look at the next entry?
Problem: Item under review: C=CCN(CC=C)C(=O)[C@@]1(c2cccs2)C[C@H]1CN.Cl . Reported clearance?
Solution: 19.2
